Value source: ChEMBL document CHEMBL3580592

Biological target: Tubulin
Assay: Inhibition of tubulin polymerization in HEK293T cell lysate after 15 mins by spectrophotometry
Conditions: hek-293t
Parameter pIC50: see the listing below.
Conceptually, pIC50 converts a concentration in mol/L into minus its log10.

COc1ccc(-c2nc3cnccn3c2Nc2cc(OC)c(OC)c(OC)c2)cc1; 4.40
COc1ccc(Nc2c(-c3ccc(OC)cc3)nc3ccccn23)cc1; 4.47

Exam item: # pIC50 lookup, item COc1ccc(Nc2c(-c3ccc(F)cc3)nc3cnccn23)cc1
Marked response: 4.36

###

Parameter CC50: see the listing below.
Tested on: HEK-293T
Assay: Cytotoxicity against human HEK293T cells assessed as cell death after 48 hrs by MTT assay
Assay type: functional
Settings: read-out: LC50 (the source's name)
The figure you give is taken to be in nM; do not add the unit.

Completed entries (count: 4):
COc1ccc(/C=C\c2cc(OC)c(OC)c(OC)c2)cc1O [COMBRETASTATIN A4]; 200
COc1cc(Nc2c(C3C=Nc4ccccc43)nc3cnccn23)cc(OC)c1OC (stereo not given); 3000
COc1ccc(-c2nc3ccccn3c2Nc2cc(OC)c(OC)c(OC)c2)cc1O; 5000
COc1ccc(Nc2c(-c3cc(OC)c(OC)c(OC)c3)nc3ccccn23)cc1; 5000

Let us move to another entry and its CC50.
Exam item: Notebook: pull reported CC50 for HEK-293T, entry COc1ccc(-c2nc3cc(C)ccn3c2Nc2cc(OC)c(OC)c(OC)c2)cc1O
Marked response: 3000

###

Parameter CC50: see the listing below.
Test: Cytotoxicity against African green monkey Vero cells assessed as cell death by MTT assay
Assay type: cell-based
Details: chlorocebus sabaeus, read-out: LC50 (the source's name)

Exam item: # CC50 lookup, item COc1ccc(-c2nc3cnccn3c2Nc2cc(OC)c(OC)c(OC)c2)cc1O
Marked response: 50 µM

Exam item: # CC50 lookup, item COc1ccc(Nc2c(-c3cccc(B(O)O)c3)nc3ccccn23)cc1
Marked response: 58 µM

Exam item: # CC50 lookup, item COc1ccc(-c2nc3ccccn3c2Nc2cc(OC)c(OC)c(OC)c2)cc1O
Marked response: 50 µM

Exam item: # CC50 lookup, item COc1ccc(Nc2c(-c3cccc(O)c3)nc3ccccn23)cc1
Marked response: 74 µM

Exam item: # CC50 lookup, item COc1cc(-c2nc3cnccn3c2Nc2cc(OC)c(OC)c(OC)c2)cc(OC)c1O
Marked response: 62 µM

Exam item: # CC50 lookup, item COc1ccc(-c2nc3cnccn3c2Nc2cc(OC)c(OC)c(OC)c2)cc1
Marked response: 75 µM

Exam item: # CC50 lookup, item COc1ccc(-c2nc3cccc(C)n3c2Nc2cc(OC)c(OC)c(OC)c2)cc1O
Marked response: 74 µM

###

Test system: HEK-293T
Assay: Cytotoxicity against human HEK293T cells assessed as cell death after 24 hrs by MTT assay
Assay type: functional
Settings: read-out: LC50 (the source's name)
Parameter CC50: see the listing below.
The figure you give is taken to be in µM; do not add the unit.

Completed entries (count: 4):
COc1ccc(Nc2c(-c3cc(OC)c(OC)c(OC)c3)nc3ccccn23)cc1; 10
COc1cc(Nc2c(C3C=Nc4ccccc43)nc3cnccn23)cc(OC)c1OC (stereo not given); 12
COc1ccc(-c2nc3ccccn3c2Nc2cc(OC)c(OC)c(OC)c2)cc1O; 10
COc1ccc(-c2nc3cc(C)ccn3c2Nc2cc(OC)c(OC)c(OC)c2)cc1O; 8

Let us move to another entry and its CC50.
Exam item: # CC50 lookup, item COc1ccc(/C=C\c2cc(OC)c(OC)c(OC)c2)cc1O
Marked response: 8

###

Tested on: HeLa
Experiment: Cytotoxicity against human HeLa cells assessed as cell death after 48 hrs by MTT assay
Assay type: functional
Conditions: read-out: LC50 (the source's name)
Parameter CC50: see the listing below.
The figure you give is taken to be in µM; do not add the unit.

Exam item: # CC50 lookup, item COc1ccc(-c2nc3cc(C)ccn3c2Nc2cc(OC)c(OC)c(OC)c2)cc1O
Marked response: 7

Exam item: # CC50 lookup, item COc1ccc(/C=C\c2cc(OC)c(OC)c(OC)c2)cc1O [COMBRETASTATIN A4]
Marked response: 0.8

###

Parameter IC50: see the listing below.
Target: Tubulin
Experiment: Inhibition of tubulin polymerization in HEK293T cell lysate after 15 mins by spectrophotometry
Details: hek-293t
The figure you give is taken to be in µM; do not add the unit.

COc1ccc(-c2nc3ccccn3c2Nc2cc(OC)c(OC)c(OC)c2)cc1O; 12
COc1ccc(-c2nc3cc(C)ccn3c2Nc2cc(OC)c(OC)c(OC)c2)cc1O; 10

Exam item: # IC50 lookup, item COc1cc(Nc2c(-c3ccc(Cl)cc3)nc3cnccn23)cc(OC)c1OC
Marked response: 32

###

Test system: HEK-293T
Test: Induction of DNA damage in HEK293T cells assessed as increase in comet length at LC50 after 24 hrs by Comet assay relative to untreated control
Format: functional, cell-based
Settings: Homo sapiens
Calls of active or inactive are those of the source. No cut-off for these calls is given here.
observable: Activity

COc1ccc(-c2nc3cc(C)ccn3c2Nc2cc(OC)c(OC)c(OC)c2)cc1O; Active
COc1ccc(-c2nc3ccccn3c2Nc2cc(OC)c(OC)c(OC)c2)cc1O; Active
COc1ccc(Nc2c(-c3cc(OC)c(OC)c(OC)c3)nc3ccccn23)cc1; Active
COc1cc(Nc2c(C3C=Nc4ccccc43)nc3cnccn23)cc(OC)c1OC (stereo not given); Active

Exam item: # Activity lookup, item COc1ccc(/C=C\c2cc(OC)c(OC)c(OC)c2)cc1O
Marked response: Active

###

Parameter CC50: see the listing below.
System: HeLa
Test: Cytotoxicity against human HeLa cells assessed as cell death after 24 hrs by MTT assay
Format: functional
Conditions: read-out: LC50 (the source's name)
The figure you give is taken to be in µM; do not add the unit.

COc1ccc(-c2nc3ccccn3c2Nc2cc(OC)c(OC)c(OC)c2)cc1O; 15
COc1ccc(-c2nc3cc(C)ccn3c2Nc2cc(OC)c(OC)c(OC)c2)cc1O; 15
COc1cc(Nc2c(C3C=Nc4ccccc43)nc3cnccn23)cc(OC)c1OC (stereo not given); 17

Exam item: Notebook: pull reported CC50 for HeLa, entry COc1ccc(Nc2c(-c3cc(OC)c(OC)c(OC)c3)nc3ccccn23)cc1
Marked response: 9

Exam item: Notebook: pull reported CC50 for HeLa, entry COc1ccc(/C=C\c2cc(OC)c(OC)c(OC)c2)cc1O [COMBRETASTATIN A4]
Marked response: 6

###

Assay: Cytotoxicity against African green monkey Vero cells assessed as cell death by MTT assay
Type: cell-based
Settings: chlorocebus sabaeus, read-out: LC50 (the source's name)
Parameter CC50: see the listing below.
The figure you give is taken to be in µM; do not add the unit.

Completed entries (count: 3):
COc1cc(Nc2c(-c3cccc(O)c3)nc3cnccn23)cc(OC)c1OC; 63
COc1ccc(Nc2c(-c3ccc(Cl)cc3)nc3cnccn23)cc1; 45
COc1ccc(Nc2c(-c3ccc(OC)c(O)c3)nc3ncccn23)cc1; 56

Exam item: # CC50 lookup, item COc1cc(Nc2c(-c3ccc(F)cc3)nc3cnccn23)cc(OC)c1OC
Marked response: 48

Exam item: # CC50 lookup, item COc1ccc(-c2nc3sc4ccccc4n3c2Nc2cc(OC)c(OC)c(OC)c2)cc1O
Marked response: 26

Exam item: # CC50 lookup, item COc1ccc(Nc2c(-c3cc(OC)c(OC)c(OC)c3)nc3ccccn23)cc1
Marked response: 65

Exam item: # CC50 lookup, item COc1cc(Nc2c(C3C=Nc4ccccc43)nc3cnccn23)cc(OC)c1OC (stereo not drawn)
Marked response: 70

Exam item: # CC50 lookup, item COc1ccc(Nc2c(-c3ccc(OC)cc3)nc3ccccn23)cc1
Marked response: 54

###

Biological target: Tubulin
Experiment: Inhibition of tubulin polymerization in HEK293T cell lysate after 15 mins by spectrophotometry
Conditions: hek-293t
observable: pIC50
Conceptually, pIC50 converts a concentration in mol/L into minus its log10.

Completed entries (count: 4):
COc1ccc(-c2nc3cnccn3c2Nc2cc(OC)c(OC)c(OC)c2)cc1O; 4.42
COc1ccc(-c2nc3sc4ccccc4n3c2Nc2cc(OC)c(OC)c(OC)c2)cc1O; 4.70
COc1ccc(-c2nc3sccn3c2Nc2cc(OC)c(OC)c(OC)c2)cc1O; 4.44
COc1ccc(Nc2c(-c3ccc(OC)c(O)c3)nc3cnccn23)cc1; 4.42

Exam item: # pIC50 lookup, item COc1cc(Nc2c(C3C=Nc4ccccc43)nc3cnccn23)cc(OC)c1OC (configuration not stated)
Marked response: 4.96

Exam item: # pIC50 lookup, item COc1cc(Nc2c(-c3ccc(F)cc3)nc3cnccn23)cc(OC)c1OC
Marked response: 4.44

Exam item: # pIC50 lookup, item COc1ccc(Nc2c(-c3cccc(B(O)O)c3)nc3ccccn23)cc1
Marked response: 4.32
